Please provide measured log10 H2 permeability for the entries that follow.
Parameter value (number): base-10 log of H2 permeability in Barrer.

Name the reported log10 H2 permeability value associated with the compound *CC(*)c1ccc(S(=O)(=O)[O-])cc1 (repeat unit) 1.03

Name the reported log10 H2 permeability value associated with the compound *C(Cl)CCCC(*)S(=O)(=O)Cl (repeat unit) 1.12

Name the reported log10 H2 permeability value associated with the compound */C(C)=C(/*)[Si](C)(C)C(C)C (repeat unit) 3.22

Name the reported log10 H2 permeability value associated with the compound *C/C(C)=C(\C)C* (repeat unit) 1.23

Name the reported log10 H2 permeability value associated with the compound *Nc1ccc(*)cc1OCC (repeat unit) 0.91

====

# cutoff 200 Barrer applies to H2 permeability; >= gives TRUE, < gives FALSE

Is the recorded value of H2 permeability equal to or greater than 200 Barrer for this molecule? *c1c(C)cc(-c2cc(C)c(N3C(=O)c4cc5c(cc4C3=O)C3(C(C)C)c4ccccc4C5(C(C)C)c4cc5c(cc43)C(=O)N(*)C5=O)c3ccccc23)c2ccccc12 (repeat unit) TRUE

Is the recorded value of H2 permeability equal to or greater than 200 Barrer for this molecule? *c1cccc(N2C(=O)c3ccc(C(c4ccc5c(c4)C(=O)N(*)C5=O)(C(F)(F)F)C(F)(F)F)cc3C2=O)c1C (repeat unit) FALSE

Is the recorded value of H2 permeability equal to or greater than 200 Barrer for this molecule? *c1c(C)c(C(=O)O)c(C)c(N2C(=O)c3ccc(C(c4ccc5c(c4)C(=O)N(*)C5=O)(C(F)(F)F)C(F)(F)F)cc3C2=O)c1C (repeat unit) FALSE

Is the recorded value of H2 permeability equal to or greater than 200 Barrer for this molecule? *c1ccc(Oc2ccc(-n3c(=O)c4cc5sc6cc7c(=O)n(*)c(=O)c7cc6sc5cc4c3=O)cc2)cc1 (repeat unit) FALSE

Is the recorded value of H2 permeability equal to or greater than 200 Barrer for this molecule? *c1ccc2c(c1)-c1nc3ccc(-c4ccc5c(c4)nc4n5C(=O)c5cc(C(c6ccc(-c7nc8cc(C(c9ccc%10oc(-c%11ccc(C(*)(C(F)(F)F)C(F)(F)F)cc%11)nc%10c9)(C(F)(F)F)C(F)(F)F)ccc8o7)cc6)(C(F)(F)F)C(F)(F)F)ccc5-4)cc3n1C2=O (repeat unit) TRUE

Is the recorded value of H2 permeability equal to or greater than 200 Barrer for this molecule? *c1ccc(Oc2ccc(C(C)(C)c3ccc(Oc4ccc(N5C(=O)c6ccc(Oc7ccc8c(c7)C(=O)N(*)C8=O)cc6C5=O)cc4)cc3)cc2)cc1 (repeat unit) FALSE

Is the recorded value of H2 permeability equal to or greater than 200 Barrer for this molecule? *C(=C(*)c1ccc(C[Si](C)(C)C)cc1)c1ccccc1 (repeat unit) TRUE

Is the recorded value of H2 permeability equal to or greater than 200 Barrer for this molecule? *c1ccc(Oc2ccc(S(=O)(=O)c3ccc(Oc4ccc(S(*)(=O)=O)cc4)cc3)cc2)cc1 (repeat unit) FALSE

Is the recorded value of H2 permeability equal to or greater than 200 Barrer for this molecule? *OCC1OC(COCC)C(*)C(OCC)C1OCC (repeat unit) FALSE

Is the recorded value of H2 permeability equal to or greater than 200 Barrer for this molecule? *CCO* (repeat unit) FALSE

Is the recorded value of H2 permeability equal to or greater than 200 Barrer for this molecule? */C(C)=C(/*)[Si](C)(C)CC (repeat unit) TRUE

Is the recorded value of H2 permeability equal to or greater than 200 Barrer for this molecule? *c1ccc(-c2ccc(-n3c(=O)c4cc5oc6cc7c(cc6oc5cc4c3=O)C3(CC(C)(C)c4cc5oc6cc8c(=O)n(*)c(=O)c8cc6oc5cc43)CC7(C)C)cc2C(F)(F)F)c(C(F)(F)F)c1 (repeat unit) TRUE

Is the recorded value of H2 permeability equal to or greater than 200 Barrer for this molecule? *C(=O)c1ccc(C2(c3ccc(C(=O)c4ccc(Oc5ccc(C(=O)c6ccc(Oc7ccc(*)cc7)cc6)cc5)cc4)cc3)OC(=O)c3ccccc32)cc1 (repeat unit) FALSE

Is the recorded value of H2 permeability equal to or greater than 200 Barrer for this molecule? *CC(*)c1ccncc1 (repeat unit) FALSE

Is the recorded value of H2 permeability equal to or greater than 200 Barrer for this molecule? *Oc1ccc(C(c2ccc(OC(=O)c3cccc(C(*)=O)c3)cc2)(C(F)(F)F)C(F)(F)F)cc1 (repeat unit) FALSE

Is the recorded value of H2 permeability equal to or greater than 200 Barrer for this molecule? *c1cc(C)c(C)c(N2C(=O)c3ccc(Oc4cc(C(C)(C)C)ccc4Oc4ccc5c(c4)C(=O)N(*)C5=O)cc3C2=O)c1C (repeat unit) FALSE

Is the recorded value of H2 permeability equal to or greater than 200 Barrer for this molecule? *Oc1ccc(S(=O)(=O)c2ccc(Oc3c(C)cc(C(c4cc(C)c(*)c(C)c4)(C(F)(F)F)C(F)(F)F)cc3C)cc2)cc1 (repeat unit) FALSE

Is the recorded value of H2 permeability equal to or greater than 200 Barrer for this molecule? *C(=C(*)c1ccc(-c2ccc(C(C)(C)C)cc2)cc1)c1ccccc1 (repeat unit) TRUE

Is the recorded value of H2 permeability equal to or greater than 200 Barrer for this molecule? *Oc1c(C)cc(C(C)(C)c2cc(C)c(Oc3ccc(C(=O)c4ccc(*)cc4)cc3)c(C)c2)cc1C (repeat unit) FALSE

Is the recorded value of H2 permeability equal to or greater than 200 Barrer for this molecule? *C(=C(*)c1ccc([Si](c2ccccc2)(c2ccccc2)c2ccccc2)cc1)c1ccccc1 (repeat unit) FALSE

====

Please assign not satisfied whenever CO2 permeability is at or above 10 Barrer, and satisfied whenever it is below.

In the record for *Oc1ccc(S(=O)(=O)c2ccc(Oc3ccc4cc(*)ccc4c3)cc2)cc1 (repeat unit) , is CO2 permeability less than 10 Barrer? satisfied

In the record for *c1ccc(-c2ccc(N3C(=O)c4ccc(-c5ccc6c(c5)C(=O)N(*)C6=O)cc4C3=O)c(O)c2)cc1O (repeat unit) , is CO2 permeability less than 10 Barrer? satisfied

In the record for *c1ccc(Cc2ccc(N3C(=O)c4ccc(-c5ccc6c(c5)C(=O)N(*)C6=O)cc4C3=O)cc2F)c(F)c1 (repeat unit) , is CO2 permeability less than 10 Barrer? satisfied

In the record for *=CC1CC(C=*)C2C(=O)N(c3ccccc3)C(=O)C12 (repeat unit) , is CO2 permeability less than 10 Barrer? not satisfied

In the record for *CC(*)(Cl)Cl (repeat unit) , is CO2 permeability less than 10 Barrer? satisfied

In the record for *c1ccc(Oc2ccc(-n3c(=O)c4cc5sc6cc7c(=O)n(*)c(=O)c7cc6sc5cc4c3=O)cc2)cc1 (repeat unit) , is CO2 permeability less than 10 Barrer? satisfied

In the record for *c1cc(C(c2ccc(O)c(N3C(=O)c4cc5c(cc4C3=O)C3(C)c4ccccc4C5(C)c4cc5c(cc43)C(=O)N(*)C5=O)c2)(C(F)(F)F)C(F)(F)F)ccc1O (repeat unit) , is CO2 permeability less than 10 Barrer? not satisfied

In the record for *CC(C)O* (repeat unit) , is CO2 permeability less than 10 Barrer? not satisfied

In the record for */N=C1/c2cc(C(c3ccc4c(c3)C(=O)n3c-4nc4c(Oc5ccc(*)c(*)c5)cccc43)(C(F)(F)F)C(F)(F)F)ccc2C(=O)N1* (repeat unit) , is CO2 permeability less than 10 Barrer? not satisfied

In the record for *c1ccc(C2(c3ccc(*)cc3)OC(=O)c3ccccc32)cc1 (repeat unit) , is CO2 permeability less than 10 Barrer? not satisfied

In the record for *CC(*)(C)C(=O)OC (repeat unit) , is CO2 permeability less than 10 Barrer? satisfied

In the record for *Oc1ccc(C23CC4CC(C2)CC(c2ccc(Oc5ccc(S(=O)(=O)c6ccc(*)cc6)cc5)cc2)(C4)C3)cc1 (repeat unit) , is CO2 permeability less than 10 Barrer? satisfied

In the record for *Oc1c(Br)cc(C(C)(C)c2cc(Br)c(OC(=O)c3cc(C(*)=O)cc(C(C)(C)C)c3)c(Br)c2)cc1Br (repeat unit) , is CO2 permeability less than 10 Barrer? not satisfied

In the record for *Oc1ccc(C(C)(C)c2ccc(OC(=O)c3cccc(C(*)=O)c3)c(C)c2)cc1C (repeat unit) , is CO2 permeability less than 10 Barrer? satisfied

In the record for *O[Si](*)(C)CCC(F)(F)F (repeat unit) , is CO2 permeability less than 10 Barrer? not satisfied

In the record for *c1ccc(C(c2ccc(-c3nc4cc(C(c5ccc6oc(*)nc6c5)(C(F)(F)F)C(F)(F)F)ccc4o3)cc2)(C(F)(F)F)C(F)(F)F)cc1 (repeat unit) , is CO2 permeability less than 10 Barrer? not satisfied

In the record for *C(=C(*)c1ccc(-c2ccc(C(C)(C)C)cc2)cc1)c1ccccc1 (repeat unit) , is CO2 permeability less than 10 Barrer? not satisfied

In the record for *CC(*)OCC1CCCCC1 (repeat unit) , is CO2 permeability less than 10 Barrer? satisfied

In the record for *Oc1ccc(C(c2ccc(Oc3c(F)c(F)c(COC(C4CCCC(C(OCc5c(F)c(F)c(*)c(F)c5F)(C(F)(F)F)C(F)(F)F)C4)(C(F)(F)F)C(F)(F)F)c(F)c3F)cc2)(C(F)(F)F)C(F)(F)F)cc1 (repeat unit) , is CO2 permeability less than 10 Barrer? not satisfied

In the record for *c1ccc(Oc2ccc(-c3ccc(-c4ccc(Oc5ccc(N6C(=O)c7ccc(C(c8ccc9c(c8)C(=O)N(*)C9=O)(C(F)(F)F)C(F)(F)F)cc7C6=O)cc5)c(C(F)(F)F)c4)s3)cc2C(F)(F)F)cc1 (repeat unit) , is CO2 permeability less than 10 Barrer? not satisfied

In the record for *O[Si](C)(C)CCCCCCCC[Si](*)(C)C (repeat unit) , is CO2 permeability less than 10 Barrer? not satisfied

In the record for *CCC(F)(Cl)C(*)(F)F (repeat unit) , is CO2 permeability less than 10 Barrer? satisfied
